Target: T1, extracellular-domain-(ECD)-comprising fragment of human CDCP1 of SEQ ID NO: 30 (human, UniProt Q9H5V8 30-663)
T1 construct: also called CDCP1 ECD; CDCP1-ECD
T1 sequence: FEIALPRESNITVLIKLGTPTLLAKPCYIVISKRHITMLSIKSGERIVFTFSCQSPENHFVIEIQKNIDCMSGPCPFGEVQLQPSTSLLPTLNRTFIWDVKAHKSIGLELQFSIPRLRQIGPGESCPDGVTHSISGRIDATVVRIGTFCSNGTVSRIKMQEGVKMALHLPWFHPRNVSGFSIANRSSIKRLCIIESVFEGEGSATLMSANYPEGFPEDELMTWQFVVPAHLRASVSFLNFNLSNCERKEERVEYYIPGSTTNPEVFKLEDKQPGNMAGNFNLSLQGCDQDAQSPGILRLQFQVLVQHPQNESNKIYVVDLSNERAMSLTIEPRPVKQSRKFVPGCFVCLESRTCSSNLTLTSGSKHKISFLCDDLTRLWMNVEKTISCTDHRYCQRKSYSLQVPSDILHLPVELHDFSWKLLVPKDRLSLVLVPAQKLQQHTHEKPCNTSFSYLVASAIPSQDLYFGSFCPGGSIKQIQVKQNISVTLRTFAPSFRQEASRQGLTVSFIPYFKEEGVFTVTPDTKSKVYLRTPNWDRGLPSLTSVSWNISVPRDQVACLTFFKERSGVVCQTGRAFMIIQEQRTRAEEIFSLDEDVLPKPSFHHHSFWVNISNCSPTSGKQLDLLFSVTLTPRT
Assay: SPR (Biacore T100), antibody captured, CDCP1 ECD as analyte, 25 C, Langmuir 1:1
This listing pairs binders with measured koff.

{"Binder": "Humanized CUB4 Antibody No. 135 (antibody, IgG1, V domains shown, Human constant region, preferably IgG1; also called Antibody 135; hHC4-H / hLC-e) VH: EVQLVESGGGLVQPGGSLRLSCAASGFTFNSYGMSWVRQAPGKGLEWVATISSGGSYKYYVDSVKGRFTISRDNAKNSLYLQMNSLRAEDTAVYYCARHPDYDGVWFAYWGQGTLVTVSS VL: DIQMTQSPSSLSASVGDRVTITCSVSSSVFYVHWYQQKPGKAPKLLIYDTSKLASGVPSRFSGSGSGTDFTFTISSLQPEDIATYYCQQWNSNPPTFGGGTKVEIK", "Unit spec": "s⁻¹", "koff": 0.0011}
{"Binder": "Humanized CUB4 Antibody No. 102 (antibody, IgG1, V domains shown, Only variable domains are tied to the antibody; Human constant region, preferably IgG1; also called hHC4-H / hLC-b) VH: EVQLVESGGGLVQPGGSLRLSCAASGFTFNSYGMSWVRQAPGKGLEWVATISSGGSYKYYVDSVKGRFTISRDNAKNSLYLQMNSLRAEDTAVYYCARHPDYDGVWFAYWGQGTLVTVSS VL: EIVLTQSPATLSLSPGERATLSCSVSSSVFYVHWYQQKPGQAPRLLIYDTSKLASGIPARFSGSGSGTDYTLTISSLEPEDFAVYYCQQWNSNPPTFGGGTKVEIK", "Unit spec": "s⁻¹", "koff": 0.0011}
{"Binder": "Humanized CUB4 Antibody No. 91 (antibody, IgG1, V domains shown, Only variable domains are tied to the antibody; Human constant region, preferably IgG1; also called hHC4-H / hLC-a) VH: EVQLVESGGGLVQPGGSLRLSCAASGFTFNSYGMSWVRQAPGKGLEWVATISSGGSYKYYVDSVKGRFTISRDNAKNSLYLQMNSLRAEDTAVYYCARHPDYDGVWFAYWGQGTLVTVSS VL: EIVLTQSPATLSLSPGERATLSCSVSSSVFYVHWYQQKPGQAPRLLIYDTSKLASGIPARFSGSGSGTDFTLTISSLEPEDFAVYYCQQWNSNPPTFGGGTKVEIK", "Unit spec": "s⁻¹", "koff": 0.001}
{"Binder": "Humanized CUB4 Antibody No. 80 (antibody, IgG1, V domains shown, Only variable domains are tied to the antibody; Human constant region, preferably IgG1; also called hHC4-H / hLC-M) VH: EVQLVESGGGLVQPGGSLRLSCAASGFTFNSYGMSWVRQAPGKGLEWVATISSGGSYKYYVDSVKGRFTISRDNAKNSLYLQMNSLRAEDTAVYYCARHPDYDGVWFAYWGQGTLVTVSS VL: EIVLTQSPATLSLSPGERATMSCGASSSVFYLHWYQQKPGLAPRLWIYDTSKLASGIPDRFSGSGSGTDFTLTISRLEPEDFAVYYCQQWNSNPPTFGGGTKVEIK", "Unit spec": "s⁻¹", "koff": 0.00088}
{"Binder": "Humanized CUB4 Antibody No. 47 (antibody, human IgG1, V domains shown, Only variable domains are tied to the antibody; also called humanized anti-CDCP1 antibody 47; hHC4-H / hLC-K) VH: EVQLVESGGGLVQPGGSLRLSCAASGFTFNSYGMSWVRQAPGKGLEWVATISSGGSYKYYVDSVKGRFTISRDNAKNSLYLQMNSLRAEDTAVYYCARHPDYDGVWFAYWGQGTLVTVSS VL: EIVLTQSPATLSLSPGERATLSCRASSSVFYLHWYQQKPGQAPRLWIYDTSKLASGIPARFSGSGSGTDFTLTISSLEPEDFAVYYCQQWNSNPPTFGGGTKVEIK", "Unit spec": "s⁻¹", "koff": 0.00075}
{"Binder": "Humanized CUB4 Antibody No. 69 (antibody, IgG1, V domains shown, Human constant region; also called Antibody 69; hHC4-H / hLC-L2) VH: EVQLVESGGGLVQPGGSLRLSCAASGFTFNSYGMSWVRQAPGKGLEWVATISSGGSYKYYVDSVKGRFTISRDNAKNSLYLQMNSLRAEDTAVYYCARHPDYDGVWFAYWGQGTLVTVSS VL: EIVLTQSPATLSLSPGERATMSCSVSSSVFYLHWYQQKPGQAPRLWIYDTSKLASGIPARFSGSGSGTDFTLTISSLEPEDFAVYYCQQWNSNPPTFGGGTKVEIK", "Unit spec": "s⁻¹", "koff": 0.00052}
